# assayed_system: CDK2-NanoLuc fusion with CCNE1 in 293T or 293 cells (Homo sapiens, UniProt P24941)
# Construct: host or cells: 293T (ATCC CRL-3216) or 293 (ATCC CRL-1573)
# protocol: NanoBRET Target Engagement (TE) Intracellular Kinase Assay, CDK2/CCNE1
# Format: cell-based
# condition_set: NanoBRET TE intracellular kinase assay, 2-hour incubation, read-out: NanoBRET-CDK2/E1 IC50
# reported log10 IC50; entries follow
Note: values are log10 of IC50 expressed in nM.

Annotate the compound CCN(NC)C(=O)O[C@@H]1CC[C@H](c2cc(NC(=O)COc3cc(OC)cc(O)c3C=O)n[nH]2)C1 [Compound 275] with its measured log10 IC50. 0.49

Let me know recorded log10 IC50 for CC1(NC(=O)O[C@@H]2CC[C@H](c3cc(NC(=O)COc4cccc(O)c4C=O)n[nH]3)C2)CC1 [Compound 82, trifluoroacetic acid] , thanks. 0.52

Quickly give me recorded log10 IC50 for CC(C)NC(=O)O[C@@H]1CC[C@H](c2cc(NC(=O)c3ccc(C=O)c(O)c3)n[nH]2)C1 [Compound 2, trifluoroacetic acid] 0.58

For the compound CC(C)NC(=O)O[C@@H]1CC[C@H](c2cc(NC(=O)Cc3ccc(-c4cccc(O)c4C=O)cc3)n[nH]2)C1 [Compound 68, trifluoroacetic acid] , give its reported log10 IC50. 0.75

Supply recorded log10 IC50 for COc1cc(O)c(C=O)c2c1CC(C(=O)Nc1cc([C@H]3C[C@@H](OC(=O)N(C)N(C)C)C3)n[nH]1)C2 (single isomer, unassigned) [Compound 271] here. 2.38
